From: PubChem BioAssay AID1745844

System: rodent lifetime carcinogenesis bioassay, tumor incidence TD50
assayInfo: carcinogenic potency in animals, long-term in vivo studies, CPDB compilation (AID 1745844)
particulars: rat; strain Fischer 344; females; in drinking water; site: thyroid follicle; lesion: several types; types named in the paper; dosed 82 weeks; study length 130 weeks
Calls of active or inactive are those of the source. No rule for the calls is given here.
endpoint: TD50

If you can, please state the reported TD50 value of `CN(C)CCN(Cc1cccs1)c1ccccc1` .
487 mg/kg/day (inactive)

----------
Tested on: rodent lifetime carcinogenesis bioassay, tumor incidence TD50
assayInfo: carcinogenic potency in animals, long-term in vivo studies, CPDB compilation (AID 1745844)
particulars: rat; strain Fischer 344; males; in drinking water; site: liver; lesion: hepatocellular carcinoma; dosed 93 weeks; study length 128 weeks
Active and inactive are the calls of the source. The rule behind the calls is not given here.
endpoint: TD50

May I ask what TD50 has been recorded for `CCCCCCCCCCCC[N+](C)(C)[O-]` ?
519 mg/kg/day (inactive)

----------
Test system: rodent lifetime carcinogenesis bioassay, tumor incidence TD50
assayInfo: carcinogenic potency in animals, long-term in vivo studies, CPDB compilation (AID 1745844)
particulars: rat; strain Not specified; males; in feed; site: liver; lesion: one or several types; types not named; dosed 64 weeks; study length 64 weeks
Calls of active or inactive are those of the source. How the calls were made is not given here.
endpoint: carcinogen call

- molecule: "O=C(O)C1=NN(c2ccc(S(=O)(=O)O)cc2)C(=O)C1N=Nc1ccc(S(=O)(=O)O)cc1 (centres undefined)"
  endpoint: "carcinogen call"
  measurement: "negative (inactive)"
- molecule: "O=S(=O)(O)c1ccc2c(N=Nc3ccc(S(=O)(=O)O)c4ccccc34)c(O)c(S(=O)(=O)O)cc2c1"
  endpoint: "carcinogen call"
  measurement: "negative (inactive)"
- molecule: "Nc1c(N=Nc2ccc([N+](=O)[O-])cc2)c(S(=O)(=O)O)cc2cc(S(=O)(=O)O)c(N=Nc3ccccc3)c(O)c12"
  endpoint: "carcinogen call"
  measurement: "negative (inactive)"
- molecule: "O=S(=O)(O)c1ccc(N=Nc2c(O)ccc3cc(S(=O)(=O)O)ccc23)cc1"
  endpoint: "carcinogen call"
  measurement: "negative (inactive)"

----------
Test system: rodent lifetime carcinogenesis bioassay, tumor incidence TD50
assayInfo: carcinogenic potency in animals, long-term in vivo studies, CPDB compilation (AID 1745844)
particulars: mouse; strain B6C3F1; females; by gavage; site: any site (literature study); lesion: several types; types named in the paper; dosed 102 weeks; study length 105 weeks
endpoint: TD50 (mg/kg/day)
Output spec: scalar in mg/kg/day, unitless text.

Would you kindly share the measured TD50 for `ClC(Cl)Br` ?
62.9

----------
Test system: rodent lifetime carcinogenesis bioassay, tumor incidence TD50
assayInfo: carcinogenic potency in animals, long-term in vivo studies, CPDB compilation (AID 1745844)
particulars: rat; strain Fischer 344; females; inhaled; site: liver; lesion: hepatocellular carcinoma; dosed 78 weeks; study length 104 weeks
endpoint: TD50

Looking for the measured TD50 of `C=CCl` , can you help?
65.2 mg/kg/day

----------
System: rodent lifetime carcinogenesis bioassay, tumor incidence TD50
assayInfo: carcinogenic potency in animals, long-term in vivo studies, CPDB compilation (AID 1745844)
particulars: rat; strain Sprague-Dawley; females; i.p.; site: any site (literature study); lesion: several types; types named in the paper; dosed 26 weeks; study length 86 weeks
endpoint: TD50 (mg/kg/day)
Respond with the bare value in mg/kg/day.

Could you tell me which TD50 is on file for `CNNCc1ccc(C(=O)NC(C)C)cc1` ?
0.329

----------
System: rodent lifetime carcinogenesis bioassay, tumor incidence TD50
assayInfo: carcinogenic potency in animals, long-term in vivo studies, CPDB compilation (AID 1745844)
particulars: rat; strain Fischer 344; males; inhaled; site: skin; lesion: basal-cell adenoma + basal-cell carcinoma; dosed 104 weeks; study length 104 weeks
endpoint: TD50 (mg/kg/day)
Number only, in mg/kg/day; omit the unit.

Would you kindly share the measured TD50 for CC(O)COC(C)(C)C (stereo unspecified) ?
1510

----------
Tested on: rodent lifetime carcinogenesis bioassay, tumor incidence TD50
assayInfo: carcinogenic potency in animals, long-term in vivo studies, CPDB compilation (AID 1745844)
particulars: mouse; strain Swiss albino; males; by gavage; site: preputial gland; lesion: squamous-cell papilloma; dosed 52 weeks; study length 134 weeks
endpoint: TD50 (mg/kg/day)
Number only, in mg/kg/day; omit the unit.

So what does the record say about TD50 for `CCCC/C=N/N(C)C=O` ?
106

----------
Test system: rodent lifetime carcinogenesis bioassay, tumor incidence TD50
assayInfo: carcinogenic potency in animals, long-term in vivo studies, CPDB compilation (AID 1745844)
particulars: mouse; strain B6C3F1; males; inhaled; site: all sites + brain + forestomach + Harderian gland + heart + kidney + liver + lung + preputial gland; lesion: histiocytic sarcoma + malignant lymphoma, mixed type + malignant lymphoma, lymphocytic type + malignant lymphoma + olfactory lob; dosed 13 weeks; study length 104 weeks
endpoint: TD50 (mg/kg/day)
Number in mg/kg/day, nothing else.

May I ask what TD50 has been recorded for `C=CC=C` ?
7

----------
Test system: rodent lifetime carcinogenesis bioassay, tumor incidence TD50
assayInfo: carcinogenic potency in animals, long-term in vivo studies, CPDB compilation (AID 1745844)
particulars: rat; strain Fischer 344; males; by gavage; site: nasal cavity; lesion: squamous-cell carcinoma; dosed 94 weeks; study length 104 weeks
endpoint: TD50

Suppose we examine the compound `CC(C)=CCl` ; what TD50 value has been reported?
297 mg/kg/day

----------
Tested on: rodent lifetime carcinogenesis bioassay, tumor incidence TD50
assayInfo: carcinogenic potency in animals, long-term in vivo studies, CPDB compilation (AID 1745844)
particulars: mouse; strain CDF1; males; in feed; site: forestomach; lesion: several types; types named in the paper; dosed 96 weeks; study length 96 weeks
endpoint: TD50

Using the record for `Cn1c(N)nc2c3cccnc3ccc21` , report its TD50.
42.3 mg/kg/day

----------
System: rodent lifetime carcinogenesis bioassay, tumor incidence TD50
assayInfo: carcinogenic potency in animals, long-term in vivo studies, CPDB compilation (AID 1745844)
particulars: mouse; strain Swiss albino; males; in drinking water; site: lung; lesion: adenoma; dosed 83 weeks; study length 83 weeks
endpoint: TD50 (mg/kg/day)
Answer in mg/kg/day, number only, no unit symbol.

Need TD50 of `O=CNNC=O` , thanks.
779

----------
Tested on: rodent lifetime carcinogenesis bioassay, tumor incidence TD50
assayInfo: carcinogenic potency in animals, long-term in vivo studies, CPDB compilation (AID 1745844)
particulars: rat; strain Sprague-Dawley; males; i.p.; site: ear canal; lesion: carcinoma, NOS + squamous-cell carcinoma; dosed 52 weeks; study length 78 weeks
endpoint: TD50

# query: TD50 | item `Nc1nc(=S)c2ncn([C@H]3C[C@H](O)[C@@H](CO)O3)c2[nH]1` | system: rodent lifetime carcinogenesis bioassay, tumor incidence TD50
4.38 mg/kg/day

----------
Tested on: rodent lifetime carcinogenesis bioassay, tumor incidence TD50
assayInfo: carcinogenic potency in animals, long-term in vivo studies, CPDB compilation (AID 1745844)
particulars: rat; strain Fischer 344; females; inhaled; site: nasal cavity; lesion: adenocarcinoma; dosed 52 weeks; study length 130 weeks
endpoint: TD50

Any idea what its TD50 is? The compound is `NN`
9.2 mg/kg/day

----------
Test system: rodent lifetime carcinogenesis bioassay, tumor incidence TD50
assayInfo: carcinogenic potency in animals, long-term in vivo studies, CPDB compilation (AID 1745844)
particulars: rat; strain Fischer 344; males; in feed; site: any site (literature study); lesion: several types; types named in the paper; dosed 104 weeks; study length 107 weeks
Activity calls are given as the source filed them. How the calls were made is not given here.
endpoint: TD50

Identify the measured TD50 of `NCCNc1cccc2ccccc12` for rodent lifetime carcinogenesis bioassay, tumor incidence TD50.
41.6 mg/kg/day (inactive)

----------
Test system: rodent lifetime carcinogenesis bioassay, tumor incidence TD50
assayInfo: carcinogenic potency in animals, long-term in vivo studies, CPDB compilation (AID 1745844)
particulars: mouse; strain B6C3F1; males; in drinking water; site: kidney; lesion: several types; types named in the paper; dosed 100 weeks; study length 100 weeks
endpoint: TD50

# get_value(readout= TD50, system= rodent lifetime carcinogenesis bioassay, tumor incidence TD50) for `[O-][Br+2]([O-])O`
53.8 mg/kg/day

----------
Tested on: rodent lifetime carcinogenesis bioassay, tumor incidence TD50
assayInfo: carcinogenic potency in animals, long-term in vivo studies, CPDB compilation (AID 1745844)
particulars: rat; strain Chester Beatty albino; males; in drinking water; site: esophagus; lesion: benign tumor; dosed 60 weeks; study length 60 weeks
endpoint: TD50

What measured TD50 goes with `CN(N=O)c1ccccc1` ?
70.4 mg/kg/day

----------
Test system: rodent lifetime carcinogenesis bioassay, tumor incidence TD50
assayInfo: carcinogenic potency in animals, long-term in vivo studies, CPDB compilation (AID 1745844)
particulars: hamster; strain Syrian Golden; females; in feed; site: forestomach; lesion: squamous-cell carcinoma; dosed 94 weeks; study length 94 weeks
endpoint: TD50

I would be grateful if you could share the reported TD50 for `NC(=O)C(=Cc1ccc([N+](=O)[O-])o1)c1ccco1` .
2340 mg/kg/day

----------
Test system: rodent lifetime carcinogenesis bioassay, tumor incidence TD50
assayInfo: carcinogenic potency in animals, long-term in vivo studies, CPDB compilation (AID 1745844)
particulars: rat; strain Fischer 344; females; in drinking water; site: thyroid gland; lesion: carcinoma; dosed 104 weeks; study length 128 weeks
endpoint: TD50 (mg/kg/day)
Give the number; mg/kg/day is assumed, so skip it.

Recorded TD50 of `O=NO` , please.
163
